Could you please report measured inhibition at 0.1 µM for the items listed next?
- TARGET_OF_ASSAY: human H-PGDS (Homo sapiens)
- Sequence (O60760 whole entry): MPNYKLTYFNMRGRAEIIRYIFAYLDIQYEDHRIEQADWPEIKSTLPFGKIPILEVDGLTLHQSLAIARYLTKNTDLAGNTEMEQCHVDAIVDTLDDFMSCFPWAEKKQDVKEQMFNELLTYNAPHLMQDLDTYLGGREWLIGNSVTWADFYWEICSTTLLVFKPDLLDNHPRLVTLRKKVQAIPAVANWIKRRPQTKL
- PROCEDURE_SUMMARY: Hematopoietic prostaglandin D synthase (H-PGDS) inhibiting action, [14C]PGH2 to PGD2 conversion, TLC radioassay
- Type: biochemical
- RECORDED_CONDITIONS: compound 0.1 μM; inhibition rate relative to solvent control group; [14C] prostaglandin H2 10 μM, 25° C.; read-out: H-PGDS inh. (% at 0.1 μM)
Please format your answer as a value with the unit trailing.

In the examples that follow, each entry is paired with its recorded inhibition at 0.1 µM.
{"COMPOUND": "O=C(NC1CCN(C(=O)C2CCC2)CC1)N1CCC(=Cc2cc(F)ccc2F)CC1 [Example 50]", "TARGET_OF_ASSAY": "human H-PGDS (Homo sapiens)", "inhibition at 0.1 µM": "59.9%"}
{"COMPOUND": "O=C(NC1CCN(C(=O)N2CCCCC2)CC1)N1CCC(=Cc2cc(F)ccc2F)CC1 [Example 57]", "TARGET_OF_ASSAY": "human H-PGDS (Homo sapiens)", "inhibition at 0.1 µM": "62.3%"}

Please go through the list and note inhibition at 0.1 µM for each compound.
1. Cc1noc(C)c1-c1ccc2nc(NC(=O)N3CCC(=Cc4ccccn4)CC3)sc2c1 [Example 4]
2. O=C(Nc1ccc(NC(=O)N2CCC(=Cc3cc(F)ccc3F)CC2)cc1)c1ccsc1 [Example 76]
3. O=C(O)c1ccc(-c2ccc(NC(=O)N3CCC(=Cc4ccccn4)CC3)cn2)cc1 [Example 28]
4. O=C(NC1CCN(C(=O)c2ccccn2)CC1)N1CCC(=Cc2cc(F)ccc2F)CC1 [Example 51]
5. O=C(Nc1ccc(N2CCCCC2)cc1)c1cnc(NC(=O)N2CCC(=Cc3ccccn3)CC2)s1 [Example 16]
6. O=C(Nc1ccc(-c2cnc(NC(=O)N3CCC(=Cc4ccccn4)CC3)s2)cc1)c1cscn1 [Example 26]

1: 62.9%; 2: 79.4%; 3: 53.2%; 4: 50%; 5: 52.7%; 6: 57.4%

Please go through the list and note inhibition at 0.1 µM for each compound.
1. COC(=O)c1ccccc1CNC(=O)N1CCC(=Cc2cc(F)ccc2F)CC1 [Example 78]
2. O=C(NC1CCN(C(=O)C(F)(F)F)CC1)N1CCC(=Cc2cc(F)ccc2F)CC1 [Example 38]
3. O=C(NC1CCN(C(=O)c2ccccc2F)CC1)N1CCC(=Cc2cc(F)ccc2F)CC1 [Example 60]
4. O=C(Nc1ccc(OCc2ccccc2)cc1)N1CCC(=Cc2ccccn2)CC1 [Example 68]
5. O=C(Nc1cnc2ccccc2c1)N1CCC(=Cc2cc(F)ccc2F)CC1 [Example 42]

1: 48.3%; 2: 82.9%; 3: 67.1%; 4: 59.8%; 5: 61.4%
